Entry source: paper PMC11088877

Biological target: human α2β2γ1 complex, CBS4 mutant (I312G) (Homo sapiens, UniProt P54619+P54646, I312G)
Construct: made in house; host or cells: Escherichia coli
Sequence (P54619 whole entry I312G): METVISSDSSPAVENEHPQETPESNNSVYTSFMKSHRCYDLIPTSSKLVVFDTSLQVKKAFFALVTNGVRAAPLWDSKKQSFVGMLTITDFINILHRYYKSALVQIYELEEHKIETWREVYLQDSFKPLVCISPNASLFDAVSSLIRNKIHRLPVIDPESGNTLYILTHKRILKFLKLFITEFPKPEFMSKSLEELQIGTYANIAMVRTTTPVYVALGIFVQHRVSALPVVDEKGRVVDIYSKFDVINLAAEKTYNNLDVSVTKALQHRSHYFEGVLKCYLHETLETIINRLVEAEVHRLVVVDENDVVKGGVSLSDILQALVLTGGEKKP
Sequence (P54646 whole entry): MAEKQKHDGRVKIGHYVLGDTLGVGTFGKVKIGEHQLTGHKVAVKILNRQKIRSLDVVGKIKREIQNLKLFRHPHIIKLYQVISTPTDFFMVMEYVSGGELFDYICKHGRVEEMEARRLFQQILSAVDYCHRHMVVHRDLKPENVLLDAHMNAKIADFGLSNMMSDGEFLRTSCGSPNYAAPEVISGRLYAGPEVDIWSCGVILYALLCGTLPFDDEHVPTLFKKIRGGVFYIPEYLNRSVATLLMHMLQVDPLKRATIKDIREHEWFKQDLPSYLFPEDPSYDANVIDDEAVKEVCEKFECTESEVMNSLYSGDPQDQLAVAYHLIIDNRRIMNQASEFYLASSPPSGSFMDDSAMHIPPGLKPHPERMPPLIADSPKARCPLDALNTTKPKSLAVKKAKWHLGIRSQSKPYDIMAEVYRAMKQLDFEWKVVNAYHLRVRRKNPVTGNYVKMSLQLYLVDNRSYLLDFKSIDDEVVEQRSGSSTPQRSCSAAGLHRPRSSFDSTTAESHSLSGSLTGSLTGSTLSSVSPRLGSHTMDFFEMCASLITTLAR
Sequence (O43741 whole entry partner): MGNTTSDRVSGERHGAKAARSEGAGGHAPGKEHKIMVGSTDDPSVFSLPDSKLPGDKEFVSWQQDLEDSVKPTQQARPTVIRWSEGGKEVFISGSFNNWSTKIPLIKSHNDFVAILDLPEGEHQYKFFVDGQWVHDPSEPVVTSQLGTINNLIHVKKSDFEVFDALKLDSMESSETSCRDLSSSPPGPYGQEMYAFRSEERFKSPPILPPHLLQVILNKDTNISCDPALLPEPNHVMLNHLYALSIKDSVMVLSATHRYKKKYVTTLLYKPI
Test: Allosteric activation of CBS4 mutant human α2β2γ1 AMPK complex
Format: biochemical
Conditions: α2β2γ1 CBS4 mutant, 0.2 mM ATP
pEC50: −log10 of the molar value.

- smiles-repr: "Nc1ncnc2c1ncn2[C@@H]1O[C@H](COP(=O)(O)O)[C@@H](O)[C@H]1O"
  pEC50: 4.42

* * *

Biological target: rat liver AMPK
Experiment: Allosteric activation and inhibition of native rat liver AMPK by AMP and ADP (SAMS peptide kinase assay)
Assay type: biochemical
Conditions: rat liver AMPK, 1.0 mM ATP
pEC50: −log10 of the molar value.
Entries annotated with measured pEC50
test-readout: pEC50

- smiles-repr: "Nc1ncnc2c1ncn2[C@@H]1O[C@H](COP(=O)(O)O)[C@@H](O)[C@H]1O"
  test-readout: "pEC50"
  observed: 4.85
- smiles-repr: "Nc1ncnc2c1ncn2[C@@H]1O[C@H](COP(=O)(O)OP(=O)(O)O)[C@@H](O)[C@H]1O"
  test-readout: "pEC50"
  observed: 3.91

* * *

Entries annotated with measured IC50
Biological target: rat liver AMPK
Assay: Allosteric activation and inhibition of native rat liver AMPK by AMP and ADP (SAMS peptide kinase assay)
Assay type: biochemical
Conditions: rat liver AMPK, 1.0 mM ATP

- smiles-repr: "Nc1ncnc2c1ncn2[C@@H]1O[C@H](COP(=O)(O)O)[C@@H](O)[C@H]1O"
  unit-spec: "mM"
  IC50: 6.9
- smiles-repr: "Nc1ncnc2c1ncn2[C@@H]1O[C@H](COP(=O)(O)OP(=O)(O)O)[C@@H](O)[C@H]1O"
  unit-spec: "mM"
  IC50: 0.69
